We begin with a simple list: items and their reported pIC50.
Molecular target: Biotin carboxylase (Escherichia coli (strain K12), UniProt P24182)
Experiment: ACCase-Coupled Enzyme Assay
Conditions: pH 8; 23 °C
pIC50: −log10 of the molar value.
endpoint: pIC50

smilesNotation: Nc1nccc(C(=O)c2ccccc2)n1
measuredValue: 5.09

smilesNotation: Cc1nc2nc(N)[nH]c2c(O)c1Cc1ccccc1
measuredValue: 5.62

smilesNotation: Cc1nc(-c2ccnc(N)n2)cs1
measuredValue: 4.23

smilesNotation: CCCCN(Cc1ccccc1)C(=O)c1cnc(N)o1
measuredValue: 5.89

smilesNotation: Cc1ccccc1CN(Cc1ccc2c(c1)OCCO2)C(=O)c1cnc(N)o1
measuredValue: 8.15

src = BindingDB's records for doi:10.1021/cb9000102
